Origin of measurements: ChEMBL document CHEMBL3885881

species: Rattus norvegicus; assay: DrugMatrix - Regimen: Daily Repeat; format: toxicity, organism-based, Sprague-Dawley; parameters: regimen Daily Repeat, gender Male, age 6-8 weeks; conditions: in vivo, ip, 0 mg/kg, […], tissue Blood, route intraperitoneal, dose level Control, time 28 day, vehicle 100 % SALINE
assay_readout: ABSOLUTE BASOPHIL (cells/µL)
The response must be a number in cells/µL with no trailing unit.

Prompt line: Need ABSOLUTE BASOPHIL of CADMIUM DICHLORIDE , thanks.
Response line: 91

---

Kindly state GLUCOSE for each of the entries shown.
species: Rattus norvegicus; assay: DrugMatrix - Regimen: Daily Repeat; format: toxicity, organism-based, Sprague-Dawley; design: regimen Daily Repeat, gender Male, age 6-8 weeks; conditions: in vivo, po, 0 mg/kg, 120 h, tissue Plasma, route oral GAVAGE, dose level Control, time 5 day, […]
Answer shape: numeric part, then the unit.

Prompt line: What value of GLUCOSE has been reported for the following molecule? CCOC(=O)C1=C(C)NC(C)=C(C(=O)OC)C1c1cccc([N+](=O)[O-])c1 (centres undefined) [NITRENDIPINE]
Response line: 162.83 mg/dL

Prompt line: Sample O=NN(CCCl)C(=O)NCCCl [CARMUSTINE] — what was its GLUCOSE?
Response line: 171.33 mg/dL

Prompt line: Entry COc1ccc2[nH]c([S+]([O-])Cc3ncc(C)c(OC)c3C)nc2c1 (centres undefined) [OMEPRAZOLE] : reported GLUCOSE = ?
Response line: 153 mg/dL

Prompt line: Item under review: CC/C(=C(/CC)c1ccc(O)cc1)c1ccc(O)cc1 [DIETHYLSTILBESTROL] . Reported GLUCOSE?
Response line: 170.17 mg/dL
